meta.source: patent US9890185B2

Let's look at some molecules and their measured pIC50.
TGT: p38 MAPKα isoform (MAPK14) (Homo sapiens (Human), UniProt Q16539)
Sequence (Q16539 whole entry, canonical isoform): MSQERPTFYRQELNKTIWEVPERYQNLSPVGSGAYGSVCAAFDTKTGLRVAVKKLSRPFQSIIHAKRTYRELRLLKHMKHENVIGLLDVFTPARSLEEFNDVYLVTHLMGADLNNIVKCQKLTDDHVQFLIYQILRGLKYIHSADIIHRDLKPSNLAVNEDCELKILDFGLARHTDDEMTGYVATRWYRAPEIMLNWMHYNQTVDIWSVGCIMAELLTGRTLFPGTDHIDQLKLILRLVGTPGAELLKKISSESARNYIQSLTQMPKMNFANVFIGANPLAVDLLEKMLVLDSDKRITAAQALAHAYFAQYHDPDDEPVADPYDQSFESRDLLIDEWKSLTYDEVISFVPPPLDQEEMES
TEST_SUMMARY: p38 MAPKα enzyme inhibition (FRET, Z-LYTE, Method 2)
pIC50: −log10 of the molar value.
REPORTED_METRIC: pIC50

test_smiles=COc1cc(Nc2cc(Oc3ccc(NC(=O)Nc4cc(C(C)(C)C)cc(CC(N)=O)c4OC)c4ccccc34)ccn2)cc(S(C)(=O)=O)c1 tgt="p38 MAPKα isoform (MAPK14) (Homo sapiens (Human), UniProt Q16539)" numeric_readout=6.73
test_smiles=COCCOCCOCCOc1cc(Nc2cc(Oc3ccc(NC(=O)Nc4cc(C(C)(C)C)cc(CP(C)(C)=O)c4OC)c4ccccc34)ccn2)cc(OC)c1 tgt="p38 MAPKα isoform (MAPK14) (Homo sapiens (Human), UniProt Q16539)" numeric_readout=7.51
test_smiles=COc1cc(Nc2cc(Oc3ccc(NC(=O)Nc4cc(C(C)(C)C)cc(C(=O)NCCN5CCOCC5)c4OC)c4ccccc34)ccn2)cc(C(=O)NCCN2CCOCC2)c1 tgt="p38 MAPKα isoform (MAPK14) (Homo sapiens (Human), UniProt Q16539)" numeric_readout=6.89
test_smiles=COCCOCCOCCOc1cc(Nc2nccc(Oc3ccc(NC(=O)Nc4cc(C(C)(C)C)cc(P(C)(C)=O)c4OC)c4ccccc34)n2)cc(OC)c1 tgt="p38 MAPKα isoform (MAPK14) (Homo sapiens (Human), UniProt Q16539)" numeric_readout=7.47
test_smiles=COCCOCCOCCNC(=O)c1cc(Nc2cc(Oc3ccc(NC(=O)Nc4cc(C(C)(C)C)cc(S(C)(=O)=O)c4OC)c4ccccc34)ccn2)cc(OC)c1 tgt="p38 MAPKα isoform (MAPK14) (Homo sapiens (Human), UniProt Q16539)" numeric_readout=7.30
test_smiles=COc1cc(C#N)cc(Nc2cc(Oc3ccc(NC(=O)Nc4cc(C(C)(C)C)cc(CC(N)=O)c4OC)c4ccccc34)ccn2)c1 tgt="p38 MAPKα isoform (MAPK14) (Homo sapiens (Human), UniProt Q16539)" numeric_readout=6.21

* * *

pIC50: −log10 of the molar value.
The following compounds each carry a recorded pIC50 for UniProt:P43405.
REPORTED_METRIC: pIC50

test_smiles=COc1cc(CO)cc(Nc2cc(Oc3ccc(NC(=O)Nc4cc(C(C)(C)C)cc(P(C)(C)=O)c4OC)c4ccccc34)ccn2)c1 tgt=UniProt:P43405 relation_symbol== numeric_readout=7.51
test_smiles=COc1cncc(Nc2cc(Oc3ccc(NC(=O)Nc4cc(C(C)(C)C)cc(CC(N)=O)c4OC)c4ccccc34)ccn2)c1 tgt=UniProt:P43405 relation_symbol=< numeric_readout=5.79
test_smiles=COc1cc(Nc2cc(Oc3ccc(NC(=O)Nc4cc(C(C)(C)C)cc(CC(N)=O)c4OC)c4ccccc34)ccn2)cc(C(=O)NCCCN2CC[S+]([O-])CC2)c1 tgt=UniProt:P43405 relation_symbol== numeric_readout=6.84
test_smiles=COc1c(NC(=O)Nc2ccc(Oc3ccnc(Nc4ccccc4)c3)c3ccccc23)cc(C(C)(C)C)cc1C(=O)NCCN1CCOCC1 tgt=UniProt:P43405 relation_symbol== numeric_readout=6.44
test_smiles=COc1cc(CO)cc(Nc2cc(Oc3ccc(NC(=O)Nc4cc(C(C)(C)C)cc(CC(N)=O)c4OC)c4ccccc34)ccn2)c1 tgt=UniProt:P43405 relation_symbol== numeric_readout=6.44
test_smiles=COc1c(NC(=O)Nc2ccc(Oc3ccnc(Nc4cccnc4)c3)c3ccccc23)cc(C(C)(C)C)cc1P(C)(C)=O tgt=UniProt:P43405 relation_symbol== numeric_readout=6.00
test_smiles=COc1c(CNC(C)=O)cc(C(C)(C)C)cc1NC(=O)Nc1ccc(Oc2ccnc(Nc3ccccc3)c2)c2ccccc12 tgt=UniProt:P43405 relation_symbol== numeric_readout=6.43
test_smiles=COc1c(CNC(C)=O)cc(C(C)(C)C)cc1NC(=O)Nc1ccc(Oc2ccnc(NCc3ccccn3)c2)c2ccccc12 tgt=UniProt:P43405 relation_symbol=< numeric_readout=5.79
test_smiles=COc1cc(Nc2cc(Oc3ccc(NC(=O)Nc4cc(C(C)(C)C)cc(CC(N)=O)c4OC)c4ccccc34)ccn2)ccn1 tgt=UniProt:P43405 relation_symbol=< numeric_readout=5.79
test_smiles=COCCOCCOCCOc1cc(Nc2cc(Oc3ccc(NC(=O)Nc4cc(C(C)(C)C)cc(C(=O)NCCN5CCOCC5)c4OC)c4ccccc34)ccn2)cc(OC)c1 tgt=UniProt:P43405 relation_symbol== numeric_readout=7.03
test_smiles=COc1cc(Nc2cc(Oc3ccc(NC(=O)Nc4cc(C(C)(C)C)cc(C(=O)NCCN5CCOCC5)c4OC)c4ccccc34)ccn2)cc(C(=O)NCCN2CCOCC2)c1 tgt=UniProt:P43405 relation_symbol== numeric_readout=6.69
test_smiles=COCCOCCOCCOc1cc(Nc2cc(Oc3ccc(NC(=O)Nc4cc(C(C)(C)C)cc(S(C)(=O)=O)c4OC)c4ccccc34)ccn2)cc(OC)c1 tgt=UniProt:P43405 relation_symbol== numeric_readout=6.63
test_smiles=COc1cccc(Nc2cc(Oc3ccc(NC(=O)Nc4cc(C(C)(C)C)cc(CC(N)=O)c4OC)c(Cl)c3Cl)ccn2)c1 tgt=UniProt:P43405 relation_symbol== numeric_readout=6.60

* * *

Let's look at some compounds and their measured IC50.
TGT: GSK 3α (Homo sapiens (Human), UniProt P49840)
Sequence (P49840 whole entry): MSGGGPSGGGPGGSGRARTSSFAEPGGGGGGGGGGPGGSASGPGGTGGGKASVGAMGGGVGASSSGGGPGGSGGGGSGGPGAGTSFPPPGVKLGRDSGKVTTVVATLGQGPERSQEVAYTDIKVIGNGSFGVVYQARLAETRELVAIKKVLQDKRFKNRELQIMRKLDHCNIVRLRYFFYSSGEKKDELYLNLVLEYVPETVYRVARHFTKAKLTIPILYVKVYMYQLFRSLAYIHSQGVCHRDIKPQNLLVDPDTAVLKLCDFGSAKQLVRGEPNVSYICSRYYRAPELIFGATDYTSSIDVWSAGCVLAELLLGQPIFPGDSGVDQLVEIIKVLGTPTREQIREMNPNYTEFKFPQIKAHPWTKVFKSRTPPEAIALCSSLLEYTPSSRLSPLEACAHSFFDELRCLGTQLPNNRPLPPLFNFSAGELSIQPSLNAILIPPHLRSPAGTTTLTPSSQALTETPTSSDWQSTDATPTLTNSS
REPORTED_METRIC: IC50 (µM)

compound=COc1c(NC(=O)Nc2ccc(Oc3ccnc(Nc4ccccc4)c3)c3ccccc23)cc(C(C)(C)C)cc1C(=O)NCCN1CCNCC1 tgt="GSK 3α (Homo sapiens (Human), UniProt P49840)" reported_metric=IC50 unit_annotation=µM relation_symbol== numeric_readout=7.94
compound=COc1c(NC(=O)Nc2ccc(Oc3ccnc(Nc4ccccc4)c3)c3ccccc23)cc(C(C)(C)C)cc1P(C)(C)=O tgt="GSK 3α (Homo sapiens (Human), UniProt P49840)" reported_metric=IC50 unit_annotation=µM relation_symbol== numeric_readout=3.83
compound=COc1c(NC(=O)Nc2ccc(Oc3ccnc(Nc4cccnc4)c3)c3ccccc23)cc(C(C)(C)C)cc1P(C)(C)=O tgt="GSK 3α (Homo sapiens (Human), UniProt P49840)" reported_metric=IC50 unit_annotation=µM relation_symbol== numeric_readout=1.6
compound=COc1cc(Nc2cc(Oc3ccc(NC(=O)Nc4cc(C(C)(C)C)cc(P(C)(C)=O)c4OC)c4ccccc34)ccn2)ccc1C(=O)NC1CCN(C)CC1 tgt="GSK 3α (Homo sapiens (Human), UniProt P49840)" reported_metric=IC50 unit_annotation=µM relation_symbol== numeric_readout=1.88
compound=COCCOCCOCCOc1cc(Nc2nccc(Oc3ccc(NC(=O)Nc4cc(C(C)(C)C)cc(OCP(C)(C)=O)c4OC)c4ccccc34)n2)cc(OC)c1 tgt="GSK 3α (Homo sapiens (Human), UniProt P49840)" reported_metric=IC50 unit_annotation=µM relation_symbol== numeric_readout=1.2
compound=COc1c(NC(=O)Nc2ccc(Oc3ccnc(NC4CCOCC4)n3)c3ccccc23)cc(C(C)(C)C)cc1P(C)(C)=O tgt="GSK 3α (Homo sapiens (Human), UniProt P49840)" reported_metric=IC50 unit_annotation=µM relation_symbol== numeric_readout=0.186
compound=COc1c(NC(=O)Nc2ccc(Oc3ccnc(N[C@H]4CCOC4)n3)c3ccccc23)cc(C(C)(C)C)cc1P(C)(C)=O tgt="GSK 3α (Homo sapiens (Human), UniProt P49840)" reported_metric=IC50 unit_annotation=µM relation_symbol== numeric_readout=0.068
compound="COc1c(NC(=O)Nc2ccc(Oc3ccnc(Nc4ccccc4)c3)c3ccccc23)cc(C(C)(C)C)cc1OCP(C)(C)=O [15(e)]" tgt="GSK 3α (Homo sapiens (Human), UniProt P49840)" reported_metric=IC50 unit_annotation=µM relation_symbol== numeric_readout=2.89
compound=COc1c(NC(=O)Nc2ccc(Oc3ccnc(Nc4ccccc4)c3)c3ccccc23)cc(C(C)(C)C)cc1C(=O)NCCN1CCOCC1 tgt="GSK 3α (Homo sapiens (Human), UniProt P49840)" reported_metric=IC50 unit_annotation=µM relation_symbol=> numeric_readout=10.1
compound=COc1c(NC(=O)Nc2ccc(Oc3ccnc(Nc4ccn(C)n4)c3)c3ccccc23)cc(C(C)(C)C)cc1P(C)(C)=O tgt="GSK 3α (Homo sapiens (Human), UniProt P49840)" reported_metric=IC50 unit_annotation=µM relation_symbol== numeric_readout=1.07
compound=COc1cc(Nc2cc(Oc3ccc(NC(=O)Nc4cc(C(C)(C)C)cc(C(=O)NCCN5CCOCC5)c4OC)c4ccccc34)ccn2)cc(C(=O)NCCN2CCOCC2)c1 tgt="GSK 3α (Homo sapiens (Human), UniProt P49840)" reported_metric=IC50 unit_annotation=µM relation_symbol== numeric_readout=1.7
compound=COc1c(CNC(C)=O)cc(C(C)(C)C)cc1NC(=O)Nc1ccc(Oc2ccnc(Nc3cc(C#N)cc(OCCN4CCOCC4)c3)c2)c2ccccc12 tgt="GSK 3α (Homo sapiens (Human), UniProt P49840)" reported_metric=IC50 unit_annotation=µM relation_symbol== numeric_readout=3.27
compound=COc1c(NC(=O)Nc2ccc(Oc3ccnc(Nc4cccc(N=S(C)(C)=O)c4)n3)c3ccccc23)cc(C(C)(C)C)cc1P(C)(C)=O tgt="GSK 3α (Homo sapiens (Human), UniProt P49840)" reported_metric=IC50 unit_annotation=µM relation_symbol== numeric_readout=0.28
compound=COc1cc(Nc2cc(Oc3ccc(NC(=O)Nc4cc(C(C)(C)C)cc(CC(N)=O)c4OC)c4ccccc34)ccn2)cc(P(C)(C)=O)c1 tgt="GSK 3α (Homo sapiens (Human), UniProt P49840)" reported_metric=IC50 unit_annotation=µM relation_symbol== numeric_readout=0.8
compound=COc1cccc(Nc2cc(Oc3ccc(NC(=O)Nc4cc(C(C)(C)C)cc(C(=O)NCCN5CCOCC5)c4OC)c4ccccc34)ccn2)c1 tgt="GSK 3α (Homo sapiens (Human), UniProt P49840)" reported_metric=IC50 unit_annotation=µM relation_symbol== numeric_readout=7.66
compound=COCCOCCOCCOc1cc(Nc2nccc(Oc3ccc(NC(=O)Nc4cc(C(C)(C)C)cc(P(C)(C)=O)c4OC)c4ccccc34)n2)cc(OC)c1 tgt="GSK 3α (Homo sapiens (Human), UniProt P49840)" reported_metric=IC50 unit_annotation=µM relation_symbol== numeric_readout=0.33
compound=COc1ccccc1Nc1nccc(Oc2ccc(NC(=O)Nc3cc(C(C)(C)C)cc(P(C)(C)=O)c3OC)c3ccccc23)n1 tgt="GSK 3α (Homo sapiens (Human), UniProt P49840)" reported_metric=IC50 unit_annotation=µM relation_symbol== numeric_readout=3.1
compound=COc1c(CS(C)(=O)=O)cc(C(C)(C)C)cc1NC(=O)Nc1ccc(Oc2ccnc(Nc3ccccc3)n2)c2ccccc12 tgt="GSK 3α (Homo sapiens (Human), UniProt P49840)" reported_metric=IC50 unit_annotation=µM relation_symbol== numeric_readout=1.64
compound=COc1cc(Nc2cc(Oc3ccc(NC(=O)Nc4cc(C(C)(C)C)cc(P(C)(C)=O)c4OC)c4ccccc34)ccn2)ccc1C(=O)N1CCN(C)CC1 tgt="GSK 3α (Homo sapiens (Human), UniProt P49840)" reported_metric=IC50 unit_annotation=µM relation_symbol== numeric_readout=0.48
compound="COc1c(NC(=O)Nc2ccc(Oc3ccnc(Nc4cnoc4)n3)c3ccccc23)cc(C(C)(C)C)cc1P(C)(C)=O [15(z)]" tgt="GSK 3α (Homo sapiens (Human), UniProt P49840)" reported_metric=IC50 unit_annotation=µM relation_symbol== numeric_readout=1.5
compound=COc1c(NC(=O)Nc2ccc(Oc3ccnc(Nc4cc(C)cc(C)c4)c3)c3ccccc23)cc(C(C)(C)C)cc1P(C)(C)=O tgt="GSK 3α (Homo sapiens (Human), UniProt P49840)" reported_metric=IC50 unit_annotation=µM relation_symbol== numeric_readout=8.26
compound=COCCOCCOCCNC(=O)c1cc(C(C)(C)C)cc(NC(=O)Nc2ccc(Oc3ccnc(Nc4cc(OC)cc(OCCOCCOCCOC)c4)n3)c3ccccc23)c1OC tgt="GSK 3α (Homo sapiens (Human), UniProt P49840)" reported_metric=IC50 unit_annotation=µM relation_symbol== numeric_readout=1.07
compound=COc1cc(Nc2cc(Oc3ccc(NC(=O)Nc4cc(C(C)(C)C)cc(CC(N)=O)c4OC)c4ccccc34)ccn2)cc(C(=O)NCC(CO)(CO)CO)c1 tgt="GSK 3α (Homo sapiens (Human), UniProt P49840)" reported_metric=IC50 unit_annotation=µM relation_symbol== numeric_readout=1.97
compound=COc1cc(Nc2cc(Oc3ccc(NC(=O)Nc4cc(C(C)(C)C)cc(CP(C)(C)=O)c4OC)c4ccccc34)ccn2)cc(C(=O)NCCN2CCOCC2)c1 tgt="GSK 3α (Homo sapiens (Human), UniProt P49840)" reported_metric=IC50 unit_annotation=µM relation_symbol== numeric_readout=1.15
compound=COc1c(NC(=O)Nc2ccc(Oc3ccnc(Nc4ccccn4)n3)c3ccccc23)cc(C(C)(C)C)cc1P(C)(C)=O tgt="GSK 3α (Homo sapiens (Human), UniProt P49840)" reported_metric=IC50 unit_annotation=µM relation_symbol== numeric_readout=5.8
compound=COCCOCCOCCOc1cc(Nc2cc(Oc3ccc(NC(=O)Nc4cc(C(C)(C)C)cc(CS(C)(=O)=O)c4OC)c4ccccc34)ccn2)cc(OC)c1 tgt="GSK 3α (Homo sapiens (Human), UniProt P49840)" reported_metric=IC50 unit_annotation=µM relation_symbol=> numeric_readout=12.2
